From: patent US20180305450A1

# target-or-test-system: T1, recombinant biotinylated human PAR2 extracellular domain (residues 1-75), N-terminal AviTag, C-terminal Flag … (human, UniProt P55085 26-75, biotin on the AviTag (enzymatic biotinylation))
# T1 construct: also called Bio-human-PAR2 ECD; human PAR2 ECD; not shown: N-terminal AviTag (Avidity LLC); C-terminal Flag and poly Histidine tags
# T1 sequence (P55085 26-75): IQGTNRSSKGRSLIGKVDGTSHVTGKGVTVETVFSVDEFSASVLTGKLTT
# assay-notes: HTRF competition with Dylight650-Par0067 IgG, pH 6.0, IgG

# binder, result-units, IC50
measured = [
    ("PaB670151 IgG (antibody, V domains shown, IgG1-TM (L234F, L235E, P331S), human lambda light chain) VH: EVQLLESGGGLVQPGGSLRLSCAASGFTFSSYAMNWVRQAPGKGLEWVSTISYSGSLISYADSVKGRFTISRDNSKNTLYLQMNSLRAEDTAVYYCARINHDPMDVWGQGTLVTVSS VL: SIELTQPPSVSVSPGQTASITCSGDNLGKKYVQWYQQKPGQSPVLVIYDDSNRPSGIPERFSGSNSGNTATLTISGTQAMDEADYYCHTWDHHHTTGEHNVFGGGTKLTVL", "nM", 796),
    ("PaB670148 IgG (antibody, V domains shown, IgG1-TM (L234F, L235E, P331S), human lambda light chain) VH: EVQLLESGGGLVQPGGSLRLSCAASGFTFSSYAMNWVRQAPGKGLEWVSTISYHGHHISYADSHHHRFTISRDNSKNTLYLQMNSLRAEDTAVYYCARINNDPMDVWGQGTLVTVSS VL: SIELTQPPSVSVSPGQTASITCSGDNLGKKYVQWYQQKPGQSPVLVIYDDSNRPSGIPERFSGSNSGNTATLTISGTQAMDEADYYCHTWHHHPTHGEHNVFGGGTKLTVL", "nM", 845),
    ("PaB670146 IgG (antibody, V domains shown, IgG1-TM (L234F, L235E, P331S), human lambda light chain) VH: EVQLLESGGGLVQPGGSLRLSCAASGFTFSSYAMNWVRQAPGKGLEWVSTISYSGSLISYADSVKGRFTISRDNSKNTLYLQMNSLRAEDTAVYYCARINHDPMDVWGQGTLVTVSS VL: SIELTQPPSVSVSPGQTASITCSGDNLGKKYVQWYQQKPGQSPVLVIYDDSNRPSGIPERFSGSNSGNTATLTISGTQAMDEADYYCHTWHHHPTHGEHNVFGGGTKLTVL", "nM", 784),
]
